# targetDesc: PI3K β (Homo sapiens, UniProt P42338)
# Construct: Full length p110 subunits of PI3K α, β and δ, N-terminally labeled with polyHis tag; polyHis (N)
# Sequence (P42338 whole entry, one chain of several): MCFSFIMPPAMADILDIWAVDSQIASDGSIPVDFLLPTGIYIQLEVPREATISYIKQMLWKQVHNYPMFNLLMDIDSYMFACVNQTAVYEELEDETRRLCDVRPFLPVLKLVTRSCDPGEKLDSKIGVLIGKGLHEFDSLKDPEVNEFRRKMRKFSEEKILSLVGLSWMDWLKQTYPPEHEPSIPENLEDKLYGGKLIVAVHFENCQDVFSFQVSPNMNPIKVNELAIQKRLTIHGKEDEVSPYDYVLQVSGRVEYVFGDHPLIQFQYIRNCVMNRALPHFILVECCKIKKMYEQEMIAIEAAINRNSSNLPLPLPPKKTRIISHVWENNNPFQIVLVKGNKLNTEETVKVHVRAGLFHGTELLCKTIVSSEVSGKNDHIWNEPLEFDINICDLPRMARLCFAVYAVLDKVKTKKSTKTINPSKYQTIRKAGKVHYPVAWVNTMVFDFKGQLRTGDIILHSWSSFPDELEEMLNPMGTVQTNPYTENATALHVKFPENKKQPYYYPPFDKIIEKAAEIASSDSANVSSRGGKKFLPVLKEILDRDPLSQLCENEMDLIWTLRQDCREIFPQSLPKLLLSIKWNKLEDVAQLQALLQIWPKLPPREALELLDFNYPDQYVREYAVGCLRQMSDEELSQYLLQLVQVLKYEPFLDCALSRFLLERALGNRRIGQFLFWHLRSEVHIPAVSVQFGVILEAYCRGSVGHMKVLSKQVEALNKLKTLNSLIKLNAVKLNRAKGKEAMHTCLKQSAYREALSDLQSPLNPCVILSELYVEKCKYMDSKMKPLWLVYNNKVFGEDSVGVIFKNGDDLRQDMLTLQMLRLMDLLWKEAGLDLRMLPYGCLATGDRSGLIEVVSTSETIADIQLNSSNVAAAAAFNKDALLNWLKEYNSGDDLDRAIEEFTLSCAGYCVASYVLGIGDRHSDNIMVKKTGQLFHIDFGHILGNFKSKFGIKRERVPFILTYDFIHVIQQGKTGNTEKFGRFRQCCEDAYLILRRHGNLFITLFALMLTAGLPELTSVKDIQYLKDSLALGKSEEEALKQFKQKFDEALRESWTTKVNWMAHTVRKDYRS
# method: In vitro PI3 kinase enzyme assay (beta), ATP loss, bioluminescence
# statedConditions: read-out: PI3Kβ ATP loss IC50
pIC50: −log10 of the molar value.
reportedEndpoint: pIC50

The cases that follow already have their pIC50 on record.
CC(=O)Nc1nc2ccc(-c3cnc(Cl)c(NS(=O)(=O)c4ccc(OC(F)F)cc4)c3)cc2s1	8.22
CC(=O)Nc1nc2ccc(-c3cncc(NS(=O)(=O)c4cccc(C(F)(F)F)c4)c3)cc2s1	7.92
Nc1nc2ccc(-c3cnc(Cl)c(NS(=O)(=O)c4ccccc4C(F)(F)F)c3)cc2s1	7.90
CC(=O)Nc1nc2ccc(-c3cncc(OCC#N)c3)cc2s1	6.33
CC(=O)Nc1nc2ccc(-c3cncc(N(C)S(=O)(=O)c4ccccc4)c3)cc2s1	5.83

[1] COc1ccc(S(=O)(=O)Nc2cncc(-c3ccc4nc(NC(C)=O)sc4c3)n2)cc1
[2] CC(=O)Nc1nc2ccc(-c3cnc(Cl)c(NS(=O)(=O)c4ccc(C(C)O)cc4)c3)cc2s1 (centres unmarked) [Example 256]
Request: Between these two entries, 1 and 2 , state which has the higher pIC50. Return value: the label identifying the chosen record.
Response: 2
(2: 8.14, 1: 7.75)

* * *

# targetDesc: PI3K β (Homo sapiens)
# Construct: Full length p110 subunits of PI3K α, β and δ, N-terminally labeled with polyHis tag; polyHis (N)
# method: In vitro PI3 kinase enzyme assay (beta), ATP loss, bioluminescence
# statedConditions: read-out: PI3Kβ ATP loss IC50
reportedEndpoint: IC50 (nM)

Please review the following examples before continuing.
CC(=O)Nc1nc2ccc(-c3cnc(Cl)c(NS(=O)(=O)c4ccc(C)cc4)c3)cc2s1	7.7
CC(=O)Nc1nc2ccc(-c3ccnc(Cl)n3)cc2s1	8270
CC(=O)Nc1nc2ccc(-c3cnc(Cl)c(NS(=O)(=O)c4cc(Cl)cc(Cl)c4)c3)cc2s1	5.4
CC(=O)Nc1nc2ccc(-c3cncc(NS(=O)(=O)c4ccc(C(C)(C)C)cc4)c3)cc2s1	11.1

[a] CC(=O)Nc1nc2ccc(-c3cnc(Cl)c(NS(=O)(=O)c4cc(F)cc(F)c4)c3)cc2s1
[b] CC(=O)Nc1nc2ccc(-c3ccnc(Sc4cc(C)cc(C)c4)n3)cc2s1
Request: Just tell me: smaller IC50 value, a or b ? Let me know the label of the one you choose.
Response: a

* * *

# targetDesc: PI3K α (Homo sapiens)
# Construct: Full length p110 subunits of PI3K α, β and δ, N-terminally labeled with polyHis tag; polyHis (N)
# method: In vitro PI3 kinase enzyme assay (alpha), ATP loss, bioluminescence
# statedConditions: read-out: PI3Kα ATP loss IC50
reportedEndpoint: IC50 (nM)

CC(=O)Nc1nc2ccc(-c3cncc(F)c3)cc2s1	96.3

[a] Nc1nc2ccc(-c3cnc(Cl)c(NS(=O)(=O)c4ccc(Cl)cc4Cl)c3)cc2s1
[b] CC(C)Nc1cc(-c2ccc3nc(NC(=O)Cc4ccccn4)sc3c2)cnc1Cl
[c] CC(=O)Nc1nc2ccc(-c3ccnc(OCCCCO)n3)cc2s1
[d] CC(=O)Nc1nc2ccc(-c3cnc(C#N)c(N)c3)cc2s1
Request: Thanks in advance: please rank these 4 entries by IC50, highest to lowest. Quick reminder: the answer is the labels in the order asked.
Response: c, d, b, a
(c: 727 nM, d: 241 nM, b: 95.4 nM, a: 7.6 nM)

* * *

# targetDesc: PI3K β (Homo sapiens, UniProt P42338)
# Construct: Full length p110 subunits of PI3K α, β and δ, N-terminally labeled with polyHis tag; polyHis (N)
# method: In vitro PI3 kinase enzyme assay (beta), ATP loss, bioluminescence
# statedConditions: read-out: PI3Kβ ATP loss IC50
reportedEndpoint: IC50 (nM)

Nc1nc2ccc(-c3cnc(Cl)c(NS(=O)(=O)c4ccc(C(F)(F)F)cc4Cl)c3)cc2s1	10.6

[P] CC(=O)Nc1nc2ccc(-c3cncc(NS(=O)(=O)c4cccc(F)c4)c3)cc2s1
[Q] COc1ccc(S(=O)(=O)Nc2cc(-c3ccc4nc(NC(C)=O)sc4c3)cnc2Cl)cc1
Request: Select one: P or Q . Criterion: greater recorded IC50. API: response body contains the label of the selected item.
Response: P
(P: 10.3 nM, Q: 3.8 nM)

* * *

# targetDesc: PI3K α (Homo sapiens, UniProt P42336)
# Construct: Full length p110 subunits of PI3K α, β and δ, N-terminally labeled with polyHis tag; polyHis (N)
# Sequence (P42336 whole entry, species assumed): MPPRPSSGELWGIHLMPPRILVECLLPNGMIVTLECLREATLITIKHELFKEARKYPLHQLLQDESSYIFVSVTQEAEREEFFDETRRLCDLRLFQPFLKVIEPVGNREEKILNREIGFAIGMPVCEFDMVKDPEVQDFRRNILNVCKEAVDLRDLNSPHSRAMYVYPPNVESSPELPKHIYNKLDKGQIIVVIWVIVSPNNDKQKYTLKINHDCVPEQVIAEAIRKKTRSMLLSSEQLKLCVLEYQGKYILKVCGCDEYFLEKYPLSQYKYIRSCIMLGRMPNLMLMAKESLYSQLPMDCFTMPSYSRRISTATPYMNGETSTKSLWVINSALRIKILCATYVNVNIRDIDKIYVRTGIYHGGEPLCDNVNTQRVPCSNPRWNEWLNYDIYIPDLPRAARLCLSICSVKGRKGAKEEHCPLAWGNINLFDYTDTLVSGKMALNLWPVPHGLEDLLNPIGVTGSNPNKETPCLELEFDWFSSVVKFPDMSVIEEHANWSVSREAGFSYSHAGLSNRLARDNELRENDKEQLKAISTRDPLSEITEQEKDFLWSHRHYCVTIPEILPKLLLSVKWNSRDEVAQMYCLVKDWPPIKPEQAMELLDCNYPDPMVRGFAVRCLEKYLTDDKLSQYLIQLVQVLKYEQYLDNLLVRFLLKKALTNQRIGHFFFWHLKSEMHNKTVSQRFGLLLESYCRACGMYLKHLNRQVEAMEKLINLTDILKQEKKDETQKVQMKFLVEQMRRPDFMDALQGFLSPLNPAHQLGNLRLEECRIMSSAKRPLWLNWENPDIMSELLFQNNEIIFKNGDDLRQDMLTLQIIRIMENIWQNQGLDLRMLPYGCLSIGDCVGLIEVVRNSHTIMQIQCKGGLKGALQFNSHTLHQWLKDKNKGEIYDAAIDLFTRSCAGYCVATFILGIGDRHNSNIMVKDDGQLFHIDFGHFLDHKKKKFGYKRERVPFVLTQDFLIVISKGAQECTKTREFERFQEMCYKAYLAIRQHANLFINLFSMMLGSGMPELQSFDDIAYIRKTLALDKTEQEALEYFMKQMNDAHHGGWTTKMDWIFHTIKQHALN
# Sequence (P27986 whole entry partner, species assumed): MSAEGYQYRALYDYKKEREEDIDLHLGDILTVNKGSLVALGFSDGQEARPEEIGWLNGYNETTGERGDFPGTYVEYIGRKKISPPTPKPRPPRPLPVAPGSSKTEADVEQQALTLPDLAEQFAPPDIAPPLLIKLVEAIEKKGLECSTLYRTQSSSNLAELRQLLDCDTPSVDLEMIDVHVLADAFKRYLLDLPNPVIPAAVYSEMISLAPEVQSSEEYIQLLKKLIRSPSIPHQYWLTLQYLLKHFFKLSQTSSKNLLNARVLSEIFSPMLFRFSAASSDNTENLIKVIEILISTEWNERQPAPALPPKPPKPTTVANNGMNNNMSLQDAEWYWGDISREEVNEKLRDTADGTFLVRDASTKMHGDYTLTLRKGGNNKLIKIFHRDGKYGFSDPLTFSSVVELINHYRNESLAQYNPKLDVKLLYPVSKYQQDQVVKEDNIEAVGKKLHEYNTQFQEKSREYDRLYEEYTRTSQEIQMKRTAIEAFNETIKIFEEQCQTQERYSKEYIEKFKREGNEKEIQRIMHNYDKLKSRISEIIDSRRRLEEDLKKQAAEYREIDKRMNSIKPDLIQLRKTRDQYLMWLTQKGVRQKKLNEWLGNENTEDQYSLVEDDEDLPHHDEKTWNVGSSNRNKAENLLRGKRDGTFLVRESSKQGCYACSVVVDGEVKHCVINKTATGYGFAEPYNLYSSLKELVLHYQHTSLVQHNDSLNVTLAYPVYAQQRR
# method: In vitro PI3 kinase enzyme assay (alpha), ATP loss, bioluminescence
# statedConditions: read-out: PI3Kα ATP loss IC50
reportedEndpoint: IC50 (nM)

Example molecules with recorded IC50:
CC(=O)Nc1nc2ccc(-c3ccnc(Cc4ccccc4)n3)cc2s1 [Example 13]	4480
CC(=O)Nc1nc2ccc(-c3ccnc(N(C)S(=O)(=O)c4ccc(C)cc4C)n3)cc2s1 [Example 212]	72.2

[P] CC(=O)Nc1nc2ccc(-c3ccnc(N(C)S(=O)(=O)c4ccc(C)c(C)c4)n3)cc2s1 [Example 210]
[Q] COc1ccc(S(=O)(=O)Nc2cc(-c3ccc4nc(NC(C)C)sc4c3)cnc2Cl)cc1 [Example 305]
Request: # argmax over IC50 for candidates P and Q Your answer should be the label attached to the chosen record.
Response: Q

* * *

# targetDesc: PI3K α (Homo sapiens)
# Construct: Full length p110 subunits of PI3K α, β and δ, N-terminally labeled with polyHis tag; polyHis (N)
# method: In vitro PI3 kinase enzyme assay (alpha), ATP loss, bioluminescence
# statedConditions: read-out: PI3Kα ATP loss IC50
reportedEndpoint: IC50 (nM)

CCCS(=O)(=O)Nc1cc(-c2ccc3nc(NC(C)=O)sc3c2)cnc1Cl	15.4

[1] COCCNc1nccc(-c2ccc3nc(NC(C)=O)sc3c2)n1
[2] CC(=O)Nc1nc2ccc(-c3ccnc(N(C)S(=O)(=O)c4ccccc4)n3)cc2s1
[3] CC(=O)Nc1ccc(Sc2nccc(-c3ccc4nc(NC(C)=O)sc4c3)n2)cc1
[4] CC(=O)Nc1nc2ccc(-c3ccnc(Sc4ccccc4Br)n3)cc2s1
Request: Could you please order the items by IC50, going from the lowest number to the highest? Show the ranking through the labels, in the order asked for.
Response: 4, 2, 3, 1
(4: 47 nM, 2: 181 nM, 3: 333 nM, 1: 696 nM)

* * *

# targetDesc: PI3K α (Homo sapiens)
# Construct: Full length p110 subunits of PI3K α, β and δ, N-terminally labeled with polyHis tag; polyHis (N)
# method: In vitro PI3 kinase enzyme assay (alpha), ATP loss, bioluminescence
# statedConditions: read-out: PI3Kα ATP loss IC50
reportedEndpoint: IC50 (nM)

In the examples that follow, each entry is paired with its recorded IC50.
CC(=O)Nc1nc2ccc(-c3ccnc(N(C)S(=O)(=O)c4cccc5cnccc45)n3)cc2s1	462
COc1ccc(Sc2ncc(-c3ccc4nc(NC(C)=O)sc4c3)s2)cc1	29.9
CC(=O)Nc1nc2ccc(-c3ccnc(OCCCO)n3)cc2s1	664
CC(=O)Nc1nc2ccc(-c3ccnc(OCc4ccc5[nH]ccc5c4)n3)cc2s1	8030

[I] CC(=O)Nc1nc2ccc(-c3cnc(C)c(NS(=O)(=O)c4cccc(OC(F)F)c4)c3)cc2s1
[II] COc1ccc(COc2nccc(-c3ccc4nc(NC(C)=O)sc4c3)n2)cc1
Request: Could you tell me which of these two has the smaller IC50 figure? First: I Second: II // respond with label for picked entry
Response: I
(I: 7.1 nM, II: 126 nM)

[a] CC(=O)Nc1nc2ccc(-c3cncc(NS(=O)(=O)c4ccc(F)cc4)c3)cc2s1
[b] CC(=O)Nc1nc2ccc(-c3cncc(OC(C)CN4CCOCC4)c3)cc2s1 (centres unmarked)
Request: Between a and b , which one shows the smaller IC50 number? Reply with the label of the item you choose.
Response: a
(a: 5.3 nM, b: 637 nM)

* * *

# targetDesc: PI3K β (Homo sapiens)
# Construct: Full length p110 subunits of PI3K α, β and δ, N-terminally labeled with polyHis tag; polyHis (N)
# method: In vitro PI3 kinase enzyme assay (beta), ATP loss, bioluminescence;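 also: purified p110β/p85 heterodimer with PtdIns(4,5)P2 as acceptor, incubated at room temperature, leftover ATP read by luminescence, inhibition scaled to compound-free wells with and without enzyme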
# statedConditions: read-out: PI3Kβ ATP loss IC50
reportedEndpoint: IC50 (nM)

COc1ccc(S(=O)(=O)Nc2cc(-c3ccc4nc(NC(=O)C5CCCCC5)sc4c3)cnc2Cl)cc1	29.2
CC(=O)Nc1nc2ccc(-c3cnc(OCCCN(C)C)c(NC(C)C)c3)cc2s1	1840

[I] CC(=O)Nc1nc2ccc(-c3cnc(Cl)c(OC(F)F)c3)cc2s1
[II] Nc1nc2ccc(-c3cnc(Cl)c(NS(=O)(=O)c4cccc(OC(F)F)c4)c3)cc2s1
Request: // which entry has the larger IC50 value, I or II ? Respond with the label that goes with your answer.
Response: I
